targetOrTestSystem: Gal(b1-4)GlcNAc(b1-2)Man
assayRemarks: glycan array binding signal (z-score within array); higher = stronger binding
studyConditions: glycan notation: IUPAC condensed, linker removed
Many of the other results were omitted from the sample, so the strongest signals are more common in it than they were.
reportedEndpoint: glycan array binding signal (z-score)
One number for each entry.

# lookup: glycan array binding signal (z-score) of FimA-N2 (Actinomyces oris) (protein) MHHHHHHSSGVDLGTENLYFQSNAWIYDVNVYPKNEAIDVDKTIQAQKLNGYGVGSLIKFPVESTAPTLDAKSFYKYFQLKDTLDERLSEVTATDVSLEGTPLQPTDYKVETKQQTVTVTFTAEGLKKIKAAPGKKVSAVFQGKVTKAGNGAITNRAQVISDTLYAEQPPTPETPPTDPENPPTSDEVISRWGDLSIKKVDTHQQGQTKA
-0.413

Try the binder Pbx1CASH domain (Cryptococcus neoformans) (protein) MDETKPLWGNPRADGISLACKDSIVERNVVYDATDGAIVLFGSAGSTVKNNHVYARTRVILGGINLVDYEPWDGDYTNVKVHHNHLYALGRYFKVGIVIGPASWSDDTESVVHSASVTDNEFSGGYWGYGIVVASAKNFEVLRNKVIWDGEQGVARFSGVPGS
0.337

Try the binder Epa20 (Candida glabrata) (protein) MGSSHHHHHHSSGLVPRGSHMASSNIPNNYPLGCSNKYSGHLPGLKMELYSYNYVNPRHPDPQNPGKLDQLYDPNLLGTYECFDSSYKDINYPRVGYKSKTLIGRSDGVSGILNFNFVPPWGCMPQKGQLPPAYNFKSNITLSNFTMILFGYFKPKISGNHIFSLHGDDLIYLNFGAGNAFDCCRQESSADNFGNYQAFSLWGINWEKKTLTVYLDMNTYYPIRIFYNNRDYQAIFNFSFKTEFDSSPVIDFQDYFFFLRDIDGGCPGEV
-0.114

Try the binder LecB PA7 (Pseudomonas aeruginosa) (protein) MATQGVFTLPANTRFGVTAFANSSATQTVKVLVNNETAATFTGQSTNNAVIGSQVLNSGGGGKVQIQVSVNGRSSDLVSAQVILANELNVALVGSEDSTDNDYNDAVVVINWPLG
-0.495

Try the binder HBHA-Rv (Mycobacterium tuberculosum), P0A5P6 (protein) MAENSNIDDIKAPLLAALGAADLALATVNELITNLRERAEETRTDTRSRVEESRARLTKLQEDLPEQLTELREKFTAEELRKAAEGYLEAATSRYNELVERGEAALERLRSQQSFEEVSARAEGYVDQAVELTQEALGTVASQTRAVGERAAKLVGIELPKKAAPAKKAAPAKKAAPAKKAAAKKAPAKKAAAKKVTQK
1.37

Could I get glycan array binding signal (z-score) for every one of these entries?
1. Aap lectin (Staphylococcus epidermidis) (protein) VNLNYSSPFMSLLSMPADSSSNNTKNTIDIPPTTVKGRDNYDFYGRVDIESNPTDLNATNLTRYNYGQPPGTTTAGAVQFKNQVSFDKDFDFNIRVANNRQSNTTGADGWGFMFSKKDGDDFLKNGGILREKGTPSAAGFRIDTGYYNNDPLDKIQKQAGQGYRGYGTFVKNDSQGNTSKVGSGTPSTDFLNYADNTTNDLDGKFHGQKLNNVNLKYNASNQTFTATYAGKTWTATLSELGLSPTDSYNFLVTSS
2. Mg3lysM (Mycosphaerella graminicola) (protein) APQNPPTSCSAAPQPTGTGSPGTVCGSTTFTNYTVKAGDTLGAIAKQYNSGVCDIAKVNGIDNPDYIKPDQVLSIPANCVTPDNTSCVKPVPVITNTCVLGVGSTYTVKSGDSFSAIATSFNITLASLEARNPQIPNYDLIFPGQVINTPLCPNSVCDSIGTYVIESGDIFYNLAQSNNVTVGQLESLNVNVNVTDIHPGDIIILPHNCHNITASA

[3, -0.039]

The reported measurements were obtained from the supplement of paper PMC8728848.
